Hello, the source for this data is patent US20220040297A1, in case you need it.

test.target: CD3ε homodimer protein (human, UniProt P07766 23-126, limits assumed)
Sequence (P07766 23-126 limits assumed): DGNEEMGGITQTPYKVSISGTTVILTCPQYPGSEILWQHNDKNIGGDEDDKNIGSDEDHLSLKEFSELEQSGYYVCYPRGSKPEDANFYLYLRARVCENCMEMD
experiment.summary: SPR, immobilized CD3ε homodimer;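 further: biacore T200 surface plasmon resonance at 25 °C, antibody variants flowed as analytes over amine-coupled CD3ε homodimer on a CM4 chip, variant binding amount divided by that of GLS3000 antibody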
attribute.measured: ratio of amounts bound (vs GLS3000)
Give your answer as a number; write no unit.

INSERT INTO measurements (binder, test_value) VALUES
  ('GLS3000 Q27P (antibody, name in Kabat numbering, V domains shown, one-arm format as m2) VH: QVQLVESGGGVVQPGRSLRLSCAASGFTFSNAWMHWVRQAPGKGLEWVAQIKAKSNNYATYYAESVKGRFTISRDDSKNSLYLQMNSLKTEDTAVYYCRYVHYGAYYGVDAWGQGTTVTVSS VL: DIVMTQSPLSLPVTPGEPASISCRSSPSLVHSNRNTYLHWYQQKPGQAPRLLIYKVSNRFSGVPDRFSGSGSGTDFTLKISRVEAEDVGVYYCGQGTQVPYTFGQGTKLEIK', 0.29),
  ('GLS3000 R29D (antibody, name in Kabat numbering, V domains shown, one-arm format as m2) VH: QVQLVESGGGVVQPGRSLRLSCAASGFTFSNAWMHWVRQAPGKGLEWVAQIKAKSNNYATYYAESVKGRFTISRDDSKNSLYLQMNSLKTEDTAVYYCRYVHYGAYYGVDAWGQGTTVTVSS VL: DIVMTQSPLSLPVTPGEPASISCRSSQSLVHSNDNTYLHWYQQKPGQAPRLLIYKVSNRFSGVPDRFSGSGSGTDFTLKISRVEAEDVGVYYCGQGTQVPYTFGQGTKLEIK', 0.41),
  ('GLS3000 L27bF (antibody, name in Kabat numbering, V domains shown, one-arm format as m2) VH: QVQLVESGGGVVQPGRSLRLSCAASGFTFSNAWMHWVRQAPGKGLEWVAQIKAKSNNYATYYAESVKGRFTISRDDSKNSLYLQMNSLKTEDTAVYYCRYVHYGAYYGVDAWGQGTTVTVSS VL: DIVMTQSPLSLPVTPGEPASISCRSSQSFVHSNRNTYLHWYQQKPGQAPRLLIYKVSNRFSGVPDRFSGSGSGTDFTLKISRVEAEDVGVYYCGQGTQVPYTFGQGTKLEIK', 0.42),
  ('GLS3000 N53E (antibody, name in Kabat numbering, V domains shown, one-arm format as m2) VH: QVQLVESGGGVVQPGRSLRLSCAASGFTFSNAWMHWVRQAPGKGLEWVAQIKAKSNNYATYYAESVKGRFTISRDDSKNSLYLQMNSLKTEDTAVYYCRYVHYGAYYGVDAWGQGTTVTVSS VL: DIVMTQSPLSLPVTPGEPASISCRSSQSLVHSNRNTYLHWYQQKPGQAPRLLIYKVSERFSGVPDRFSGSGSGTDFTLKISRVEAEDVGVYYCGQGTQVPYTFGQGTKLEIK', 0.54);

Now for the binder whose ratio of amounts bound (vs GLS3000) we want.
## Input Query: ratio of amounts bound (vs GLS3000); subject: GLS3000 L33F (antibody, name in Kabat numbering, V domains shown, one-arm format as m2) VH: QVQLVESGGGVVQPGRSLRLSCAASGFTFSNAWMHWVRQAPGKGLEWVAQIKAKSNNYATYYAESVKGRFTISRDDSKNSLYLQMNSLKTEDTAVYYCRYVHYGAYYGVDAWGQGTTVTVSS VL: DIVMTQSPLSLPVTPGEPASISCRSSQSLVHSNRNTYFHWYQQKPGQAPRLLIYKVSNRFSGVPDRFSGSGSGTDFTLKISRVEAEDVGVYYCGQGTQVPYTFGQGTKLEIK
## Output 0.78
